Data origin: paper PMC9482650

# system tested: Inadl_8, Q8NI35
# Sequence (Q8NI35 1425-1530): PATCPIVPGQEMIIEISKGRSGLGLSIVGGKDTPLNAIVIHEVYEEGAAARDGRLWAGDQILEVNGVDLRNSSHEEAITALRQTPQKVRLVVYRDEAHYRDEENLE
# assay notes: holdup assay
# Parameters: key: below the threshold = too weak to quantify, mostly under pKd 3.1 to 4
# condition: plain residues with an end cap or a label only (N-terminal biotin on a linker: ado-ado)
parameter measured: pKd

Examples with answers:
>  <binder>
NVYGIESVKI [GRIA2, P42262]

>  <pKd>
below the threshold

$$$$
>  <binder>
NISYRRESAI [KCNJ4, P48050]

>  <pKd>
below the threshold

$$$$
>  <binder>
RSSGGDDFWF [KCNV1, Q6PIU1]

>  <pKd>
below the threshold

$$$$
>  <binder>
LAHVKHKEQI [AQP3, Q92482]

>  <pKd>
below the threshold

$$$$
>  <binder>
LKDDELKTKL [SLCO1A2, P46721]

>  <pKd>
below the threshold

$$$$
>  <binder>
REEPDHSTEV [CCRL2, O00421]

>  <pKd>
below the threshold

$$$$
>  <binder>
DRIQSCLSDA [SBF1, O95248]

>  <pKd>
below the threshold

$$$$
>  <binder>
ARESQKVSHV [FAM110B, Q8TC76]

>  <pKd>
4.8

$$$$
>  <binder>
QLSFNTDTLC [ABCA2, Q9BZC7]

>  <pKd>
below the threshold

$$$$
>  <binder>
SVTSERETNI [SLC16A7, O60669]

>  <pKd>
below the threshold

$$$$

State its pKd: KPGKGSETVV [FZD4, Q9ULV1] 3.49

State its pKd: EDGESWEYQI [TRPV6, Q9H1D0] below the threshold

State its pKd: LESTTVGTSV [KARS1, Q15046] 4.15

State its pKd: QSGLYESEEL [MYOT, Q9UBF9] below the threshold

State its pKd: DTKNYKQTSV [CRIPT, Q9P021] 4.66
